These entries and their values trace back to PubChem BioAssay (NCI).

- test: NCI Yeast Anticancer Drug Screen. Data for the bub3 strain (AID 167)
- measurement setup: S. cerevisiae bub3 mutant strain, at 50.0 µM (retest, dose inferred, filed as 5.0), hits give high values
Compounds without any hit were thinned out: in the full panel of roughly 79,000, 15% have a hit.
Documented growth inhibition across a set of compounds
A number alone suffices; assume %.

Observe how each entry below is paired with its result.
compound: Cc1cc(C)c([O-])c(-[n+]2c(-c3ccccc3)cc(-c3ccccc3)cc2-c2ccccc2)c1
measurement: -2
--
compound: O=C(/C=C\c1cccc2ccccc12)c1ccccn1
measurement: 99
--
compound: CCCCn1c(C)nc2cc(C(F)(F)F)cc(N)c21
measurement: 10
--
compound: COc1ccccc1C(=O)c1ccc2ccccc2c1
measurement: 74
--
compound: CCOC(=O)C1=C(C)Oc2cc3c(cc2C1c1cc(OC)c(OC)c(OC)c1)OCO3 (stereo not drawn)
measurement: 94

Problem: Requested field: growth inhibition. Item: N#CC1C(=O)NC(=O)C(C#N)C1c1c(Cl)cccc1Cl (stereo not drawn)
Solution: 74

Problem: Requested field: growth inhibition. Item: c1ccc(C2CC(c3ccc4ccccc4c3)=Nc3ccccc3S2)cc1 (stereo not drawn)
Solution: 91

Problem: Requested field: growth inhibition. Item: `Cc1ccc2cccc(N)c2c1`
Solution: 12

====

- test: NCI Yeast Anticancer Drug Screen. Data for the rad50 strain (AID 155);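 note: 0% = growth of vehicle-only cultures of the same strain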
- measurement setup: S. cerevisiae rad50 strain growth inhibition; at 50.0 µM (retest, dose inferred, filed as 5.0)
The panel holds about 79,000 compounds, 15% with a hit somewhere; the sample as a whole holds those more often. Calls of active or inactive are those of the source. Rule as the data show it: active = growth inhibition above about 70%; inactive = the rest.
// allowed return values: yes (active), no (inactive)

Reference set, count: 3
compound: Cc1ccc(C(=O)C(CN(C)C)CN(C)C)cc1
class label: no
//
compound: C=CCOC(=O)OCCCO
class label: no
//
compound: CCCCN(CCCC)S(=O)(=O)c1ccccc1
class label: no

Problem: I'd appreciate the recorded outcome for `Cc1cccc(C)c1N=Nc1c(C)nc(N)nc1-c1ccccc1` from this test.
Solution: yes

Problem: I'd appreciate the recorded outcome for `Clc1ccc(Oc2nc(Cl)nc3[nH]ncc23)cc1` from this test.
Solution: no

Problem: I'd appreciate the recorded outcome for `CC(C=O)=C(c1ccccc1)c1ccccc1` from this test.
Solution: no

====

Documented growth inhibition across a set of compounds
- test: NCI Yeast Anticancer Drug Screen. Data for the cln2 rad14 strain (AID 165);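 note: 0% = growth equal to vehicle treated cultures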
- measurement setup: S. cerevisiae cln2 rad14 strain, at 50.0 µM, hits give high values
- Experimental: Growth inhibition of yeast strains with defined genetic alterations is measured as a screen for potential anti-cancer activity. Selected strains with alterations in DNA damage repair or cell cycle control were exposed to compounds and growth inhibition was measured relative to vehicle treated controls. The strain used in this assay is cln2 rad14
This is part of a sample that, as a whole, favours compounds with a hit. Of some 79,000 tested, about 15% had one in any assay.
A number alone suffices; assume %.

Observe how each entry below is paired with its result.
molecular string: CC1=C(C(=O)Nc2ccccc2)C(c2ccc(Cl)c(Cl)c2)C(C(=O)Nc2ccccc2)=C(C)N1
measured property: growth inhibition
display unit: %
measurement: 91
//
molecular string: Cc1c2ccncc2cc2c1sc1ccncc12
measured property: growth inhibition
display unit: %
measurement: 90.5

Here's the next entry for you.
Problem: Requested field: growth inhibition. Item: `CCN(CC)C(=S)n1c(=S)nc(N(CC)CC)sc1=S`
Solution: 88.9
